measured target: Neu5Ac(a2-3)Gal(b1-3)GlcNAc(b1-2)Man(a1-3)[GlcNAc(b1-4)][Neu5Ac(a2-3)Gal(b1-3)GlcNAc(b1-2)Man(a1-6)]Man(b1-4)GlcNAc(b1-4)GlcNAc
test description: glycan array binding signal (z-score within array); higher = stronger binding
measurement setup: glycan notation: IUPAC condensed, linker removed
About 410 targets per protein were measured; listed, in parts, are those with the strongest signals and a random draw of the rest.
endpoint: glycan array binding signal (z-score)
Reply with just the number.

binder	glycan array binding signal (z-score)
CLECb-Precomplexed (Mus musculus), P43025 (protein) MAKNGLVLCILVVSLLLDQTDGYPSRMKARKHSKRRVKAKDDDLKSQVEKLWREVNALKEMQALQTVCLRGTKVHKKCYLASEGLKHYHEANEDCISKGGTLVVPRNSDEINALRDYGKRSLPGVNDFWLGINDMVTEGKFLDVHGFAVSFLNWDRAQPSGGKRENCVLFSQSAQGKWSDEACRSSKRYICEFIIPTRTRPLEQKLISEEDLAANDILDYKDDDDKV	-0.444

Measured glycan array binding signal (z-score), Sp8391B-bot-388-20-388 (Bacteroides ovatus) (protein) GCQNNDENEQHYDNKLFISASNFTKEILFKAGDTNVETGLSVAIAKPEEHDIKVTMSPAPELLSTYKLAYYDETAVLLSEEHYSMPETSTTIKSGSIVSPELPIEFINTGELDIKTTYVLPVTIKSVEGIGVLQSAKTYYYVFRGASLINVVCNISRNRAYPDFKNDSKFNNLTENTMEILFKANSFPNTLNTLMGIESNYLLRIGDATIPNNQLQVATSVNNCTSADLQLESGKWYHVAVAFNKGNVKVYINGVEKLSGSTGKSSVSLGAKHTNEEDGSRCFWVGYSYKDDRYFDGVVSEVRIWNRALTAEEIQATNHFYTIEPESEGLIAYWKFDEGSGTVAKDYSVSGYDLTIEKEPKWESVSLPQ : -0.652

Measured glycan array binding signal (z-score), CPA (Cicer arietinum) (protein) MAFSYLNLVLVTLTTLFFLQTTKVKSQKSVSFHITNFTISRPSITLQGTAEFLPNVLLLNDIEHPVFVVGRALYSKPITLWNNKTGKVASFVTSFTFDVQDLKKTVPGHGLVFFLAPSGSEIPFSSDGGNLGVVDGKNAFNRFVGVEFDNFVNSWDPKYSHVGINVNSLISTKTVKWNRVSGELVKVSIVYDSVSTTLTVIVTYKNGQISILSQLVDLKAVLPDTVNIGFSASTTLVSPRQLHNIHSWSFTSTFET : -0.065

Measured glycan array binding signal (z-score), Clec12b (Mus musculus), Q149M0 (protein) MSDEVTYATLMLQDSARVRGNQDGNNLRKEGHPAQSSLWRGAALSLMTLCLVLVTGLVTLATMFLQVSNDINSDSEKLSQLQKSIHPQQDNLSESLNSSRKSLTEESLQSQISALLERQEQMATKLCKEFLIHASDHKCNPCPKTWQWYGNSCYYFSINEEKSWSDSRKDCIDKNATLVKIDSTEERDLLQSQLSLTFSFFWLGLSWNSSGRNWLWEDGSFPPPTLFSDKELASFNGSRDCAYFERGNIYASRCSAEIPWICEKTASLVKTEDLD : -0.101

Measured glycan array binding signal (z-score), Intelectin-1a (Mus musculus) (protein) AEWSHPQFEKAEENLDTNRWGNSFFSSLPRSCKEIKQEHTKAQDGLYFLRTKNGVIYQTFCDMTTAGGGWTLVASVHENNMRGKCTVGDRWSSQQGNRADYPEGDGNWANYNTFGSAEAATSDDYKNPGYFDIQAENLGIWHVPNKSPLHNWRKSSLLRYRTFTGFLQHLGHNLFGLYKKYPVKYGEGKCWTDNGPALPVVYDFGDARKTASYYSPSGQREFTAGYVQFRVFNNERAASALCAGVRVTGCNTEHHCIGGGGFFPEGNPVQCGDFASFDWDGYGTHNGYSSSRKITEAAVLLFYR : -0.723
